# System: Klebsiella pneumoniae
# Applied Conditions: Concentration 32 ug.mL-1; ASSAY_TEST Inhibition of Bacterial Growth; detection method Absorption (OD600); MEDIA CAMHB; plate type 384well; NBS; CORNING #3640; time 18 hr
# Description: Antibacterial activity against Klebsiella pneumoniae MDR ATCC 70063 (CO-ADD:GN_003); MIC in CAMBH media using NBS plates, by OD(600)
Results with a measured potency or affinity are listed apart.
Measurement Label: Inhibition

1. CC(=O)N(C(C)=O)c1cc(C(=O)Nc2cc(C(=O)NCCC(=N)N)n(C)c2)n(C)c1.O=C(O)C(F)(F)F
5.82%
2. Cn1cc(NC(=O)c2cc(NC(=O)c3sc(N)nc3C(F)(F)F)cn2C)cc1C(=O)NCCC(=N)N.O=C(O)C(F)(F)F
-8.6%
3. CC(C)CCc1sc(NC(=O)c2cc(NC(=O)c3cc(NC(=O)CCC(=O)O)cn3C)cn2C)nc1C(=O)NCCCN(C)C.O=C(O)C(F)(F)F
2.15%
4. CCOC(=O)c1cc(NC(=O)c2cc(NC(=O)c3nc(N)sc3C(C)C)cn2C)cn1C
11.43%
5. Cc1ncc(CNc2ccc(C(F)(F)F)cc2)c(N)n1
1.98%
6. CC(=O)Nc1cc(C(=O)Nc2cc(C(=O)Nc3cc(C(=O)NCCCN(C)C)n(C)c3)n(C)c2)n(C)c1.O=C(O)C(F)(F)F
11.92%
7. CC(C)CCc1sc(NC(=O)c2cc(NC(=O)c3ccc(/C=C/c4cc5ccccc5nc4On4nnc5ccccc54)cc3)cn2C)nc1C(=O)NCCN1CCOCC1.O=C(O)C(F)(F)F
-11.86%
